Origin of measurements: patent US6072051A

# experimentSummary: Toxicity (CC50) in Hep G2 2.2.15 cell lines, anti-HBV test
# Assay type: cell-based
# conditionsUsed: human, hep g2 2.2.15 cells
Answer each item with its documented CC50.
The response must be a number in µM with no trailing unit.

q: What value of CC50 has been recorded for this entry: Nc1ccn([C@H]2CC[C@@H](CO)O2)c(=O)n1 [Control compound, 2',3'-dideoxycytidine, reference compound]
a: 1080

q: What value of CC50 has been recorded for this entry: Nc1ccn([C@H]2C[C@](F)(CO)CO2)c(=O)n1 (relative stereo)
a: 1500

q: What value of CC50 has been recorded for this entry: O=c1[nH]c(=O)n([C@H]2C[C@](F)(CO)CO2)cc1I (relative stereo)
a: 451

q: What value of CC50 has been recorded for this entry: Nc1nc(=O)n([C@@H]2C[C@](F)(CO)CO2)cc1F (relative stereo)
a: 2230

q: What value of CC50 has been recorded for this entry: Nc1ccn([C@@H]2C[C@](F)(CO)CO2)c(=O)n1 (relative stereo)
a: 1550

q: What value of CC50 has been recorded for this entry: Cc1cn([C@H]2C[C@](F)(CO)CO2)c(=O)[nH]c1=O (relative stereo)
a: 2320

q: What value of CC50 has been recorded for this entry: O=c1[nH]c(=O)n([C@@H]2C[C@](F)(CO)CO2)cc1I (relative stereo)
a: 2200

q: What value of CC50 has been recorded for this entry: Nc1nc(=O)n([C@H]2C[C@](F)(CO)CO2)cc1F (relative stereo)
a: 955

q: What value of CC50 has been recorded for this entry: Cc1cn([C@@H]2C[C@](F)(CO)CO2)c(=O)[nH]c1=O (relative stereo)
a: 472
